Assay: qHTS Assay for Inhibitors of Bacillus subtilis Sfp phosphopantetheinyl transferase (PPTase): Hepg2 Assay
Details: HepG2 cytotoxicity counter-screen; series mostly up to 46.1 µM
Text: The covalent attachment of a phosphopantetheinyl (4'-PP) arm to a variety of synthases and other proteins is a key posttranslational protein modification. […] In search of small molecule Sfp-PPTase inhibitors, a fluorescence quenching assay was developed for detection of Bacillus subtilis Sfp-PPTase enzymatic activity in a miniaturized high-throughput format. […]
Inconclusive results are not listed. The source made the active and inactive calls. The call rests on the fitted dose curve; in most records, active means well fitted inhibition curve with a large enough effect; inconclusive means small, poorly fitted or top-dose-only effect; inactive means no such curve, though single readings can be large or run the other way.
The reply should name one outcome from active, inactive

Entry "COc1cccc(NC(=S)N2CCN(c3cccc(C(F)(F)F)n3)CC2)n1" : call = ?
inactive

Entry "COc1cccc(NC(=S)N2CCN(c3ccccc3C(F)(F)F)CC2)n1" : call = ?
inactive

====

assay: qHTS Assay for Inhibitors of Bacillus subtilis Sfp phosphopantetheinyl transferase (PPTase): Hepg2 Assay; conditions: HepG2 cytotoxicity counter-screen; series mostly up to 46.1 µM
Results filed as inconclusive are left out. Activity calls are given as the source filed them. Calls come from the whole dose curve; as a rule, active = well fitted inhibition curve with a large enough effect; inconclusive = small, poorly fitted or top-dose-only effect; inactive = no such curve, though single readings can be large or run the other way.
The reply should name one outcome from 1 for active, 0 for inactive

Structure as smiles	Assigned class
COc1ccnc(NC(=S)N2CCN(c3ncc(C(F)(F)F)cc3Cl)CC2)c1	0
Cc1ccnc(NC(=S)NC2CN(c3cccc(C(F)(F)F)c3)C2)c1	1
Cc1cc(C)nc(NC(=S)N2CCN(c3ccc4nonc4c3)CC2)c1	0
Cc1cc(C)nc(NC(=S)N2CCN(c3nsc4ccccc34)CC2)c1	0
CC(=O)N1CCN(C(=S)Nc2cc(C)ccn2)CC1	0
COc1ccnc(NC(=S)N2CCN(c3ccc(Cl)cc3Cl)CC2)c1	0
FC(F)(F)c1cnc(N2CCN(C(=S)Nc3cc(Cl)ccn3)CC2)c(Cl)c1	0
FC(F)(F)c1cc(N2CCN(C(=S)Nc3cc(Cl)ccn3)CC2)cc(C(F)(F)F)c1	1

Entry "Cc1ccnc(NC(=S)N2CCN(c3cc(C(F)(F)F)cc(C(F)(F)F)c3)CC2)c1" : call = ?
1
